pKi: −log10 of the molar value.
Collected from the literature: pKi of various compounds toward Carbonic anhydrase 9 (Homo sapiens).
Reported endpoint: pKi

Example entries and their recorded answers appear below.
Compound: CC(=O)O[C@H]1[C@H](OC(C)=O)C(OCc2cn(-c3ccc(S(N)(=O)=O)cc3)nn2)OC[C@H]1OC(C)=O (stereo partly drawn)
Assayed target: Carbonic anhydrase 9 (Homo sapiens)
pKi: 7.14

Compound: NS(=O)(=O)c1ccc(-n2nnc(C(=O)c3ccco3)c2C(F)(F)F)cc1
Assayed target: Carbonic anhydrase 9 (Homo sapiens)
pKi: 6.72

Compound: CC(C)(C)n1c(=O)cc(-c2cc3ccccc3o2)[s+]1[O-] (stereo not drawn)
Assayed target: Carbonic anhydrase 9 (Homo sapiens)
pKi: 6.60

(A) CN(C)c1cc[n+](-c2ccncc2S(N)(=O)=O)cc1
(B) O=S1(=O)C=Cc2cc(OCc3ccccc3)ccc2O1
(C) NS(=O)(=O)c1ccc(-n2cc(CO[C@@H]3O[C@H](CO)[C@H](O)[C@H](O)[C@H]3O)nn2)cc1
(D) NS(=O)(=O)c1ccc(-c2cn(C3O[C@H](CO)[C@@H](O)[C@H](O)[C@@H]3O)nn2)cc1 (single isomer, unassigned)
Ask | Ascending by pKi, please. Please, when replying, give the labels in the order that was requested.
Reply | B, C, A, D

(I) Nc1ccc(S(N)(=O)=O)cc1I
(II) NS(=O)(=O)c1ccc(NC(=O)/C=C/c2cccc(C(F)(F)F)c2)cc1
(III) COC(=O)[C@H]1O[C@@H](S(=O)(=O)NCCc2ccc(S(N)(=O)=O)cc2)[C@H](OC(C)=O)[C@@H](OC(C)=O)[C@H]1OC(C)=O
Ask | Ascending by pKi, please. Please, when replying, give the labels in the order that was requested.
Reply | I, III, II
(I: 6.55, III: 7.02, II: 7.94)

(P) NS(=O)(=O)c1ccc(C(=O)NNC(=O)Nc2ccc(Cl)c(Cl)c2)cc1
(Q) CCOc1ccc2ccc(=O)oc2c1
Ask | // select label with min value of measured pKi from [ P , Q ] Indicate which entry you chose by stating its label.
Reply | Q
(Q: 5.80, P: 8.10)

(P) NS(=O)(=O)c1ccc(-n2cc(/C=N\Nc3nc(-c4cc5ccccc5oc4=O)cs3)c(-c3ccc(Cl)cc3)n2)cc1
(Q) NS(=O)(=O)c1ccc(CCNC(=O)c2sc3ccccc3c2Cl)cc1
Ask | // select label with min value of measured pKi from [ P , Q ] Indicate which entry you chose by stating its label.
Reply | Q
(Q: 5.97, P: 8.63)
